Reference source for all entries: ChEMBL document CHEMBL1201862

I'd appreciate it if you could supply GI50 values for the items below.
tested on: NCI/ADR-RES; assay: NCI tumour cell line growth inhibition, 48 h
The source made the active and inactive calls. Rule as the data show it: active = GI50 up to about 1.1 µM and inactive = higher.

N#CCCOc1cccc(C2(N3CCCCC3)CCCCC2)c1 : > 100 µM (inactive)
Cc1ccc(/C=N/Nc2nc3ccccc3s2)s1 : > 100 µM (inactive)

Record GI50 per entry; entries follow.
1. Nc1n[nH]c2c(C(=O)Nc3ccc(Cl)cc3)c(N)n(N)c(=O)c12
2. O=C(O)[C@@H]1[C@H](C(=O)O)[C@H](C(=O)O)C[C@@H]1C(=O)O
3. CCOC(=O)C(Cl)(NC(=O)c1c(F)c(F)c(F)c(F)c1F)C(F)(F)F (stereo not drawn)
4. CC(C)C1=CC2=C(C(=O)C1=O)C13CCCC(C)(C)C1CC2OC3=O (stereo not drawn)
5. [N-]=[N+]=C1N=CN=C1c1nc[nH]n1
6. Cn1ncc2c(Nc3cccc(Cl)c3)nc(Nc3cccc(Cl)c3)nc21
7. COc1ccc2c(c1)N=C(N)n1c(nc3ccccc31)S2
8. CCC1(CC)C(=O)N(C(=O)c2ccc(Cl)cc2)N(C(=O)c2ccccc2Cl)C1=O

1: > 100 µM (inactive); 2: > 100 µM (inactive); 3: > 100 µM (inactive); 4: 18.9 µM (inactive); 5: 22.1 µM (inactive); 6: 9.71 µM (inactive); 7: 19.2 µM (inactive); 8: 28.3 µM (inactive)
